This collection of values is drawn from patent US9783505B2.

assayed.target: His-PKC-theta (Homo sapiens, UniProt Q04759)
Construct: His; purchased Invitrogen
Sequence (Q04759 whole entry): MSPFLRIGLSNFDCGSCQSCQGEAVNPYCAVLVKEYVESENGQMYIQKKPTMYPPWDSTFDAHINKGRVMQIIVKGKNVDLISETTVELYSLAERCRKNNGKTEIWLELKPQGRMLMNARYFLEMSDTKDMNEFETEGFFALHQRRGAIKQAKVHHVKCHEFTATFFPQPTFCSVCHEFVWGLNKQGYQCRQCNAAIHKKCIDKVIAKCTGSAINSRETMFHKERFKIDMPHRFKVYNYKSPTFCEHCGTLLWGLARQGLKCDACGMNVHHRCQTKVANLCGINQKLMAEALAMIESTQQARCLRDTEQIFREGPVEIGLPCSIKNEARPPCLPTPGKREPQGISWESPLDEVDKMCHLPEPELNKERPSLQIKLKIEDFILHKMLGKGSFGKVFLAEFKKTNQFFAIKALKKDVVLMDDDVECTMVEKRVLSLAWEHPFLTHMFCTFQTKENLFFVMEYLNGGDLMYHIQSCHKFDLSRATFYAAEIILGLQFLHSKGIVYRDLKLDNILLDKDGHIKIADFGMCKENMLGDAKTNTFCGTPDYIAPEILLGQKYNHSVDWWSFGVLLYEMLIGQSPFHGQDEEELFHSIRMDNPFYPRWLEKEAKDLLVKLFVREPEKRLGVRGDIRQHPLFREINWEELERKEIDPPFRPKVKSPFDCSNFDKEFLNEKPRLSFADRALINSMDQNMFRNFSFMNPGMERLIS
protocol.notes: PKC-theta Assay (384-well time resolved fluorescence, IMAP TR-FRET)
Type: biochemical
measurement.parameters: Table 2; read-out: Act. Level (IC50 in the PKC-theta Assay)
Kindly supply the reported IC50 values for the records listed here.

INSERT INTO assay_data (compound, result) VALUES
  ('CC1(C)C[C@H](Nc2nc(NCCc3ccc(F)cc3F)ncc2C#N)CC[C@@H]1O', '0.1 to 0.8 µM'),
  ('CC1(C)[C@@H](O)C[C@H]1Nc1nc(NCCc2ccc(N3CCCCC3)cc2)ncc1C#N', '0.8 to 2 µM'),
  ('CC1(C)[C@H](CO)C[C@H]1Nc1nc(NCCc2cccc(Cl)c2)ncc1C#N', '< 0.1 µM'),
  ('CNC(=O)c1cccc(CCNc2ncc(C#N)c(N[C@@H]3C[C@H](O)C3(C)C)n2)c1', '0.8 to 2 µM'),
  ('Cc1c(CO)cccc1Nc1nc(NCc2cnccc2C(F)(F)F)ncc1C#N', '0.1 to 0.8 µM'),
  ('CC1(C)C[C@H](Nc2nc(NCCc3ccc(C#N)c(Cl)c3)ncc2C#N)CC[C@@H]1O', '0.1 to 0.8 µM'),
  ('CC1(C)[C@@H](O)C[C@H]1Nc1nc(NCCc2ccc(OC3CCCC3)cc2)ncc1C#N', '0.8 to 2 µM'),
  ('CC1(C)C[C@H](Nc2nc(NCCc3ccc(OC4CCCC4)cc3)ncc2C#N)CC[C@@H]1O', '0.1 to 0.8 µM');

Answer for every listed entry: what is its IC50? The entries follow.
1. CC1(C)C[C@H](Nc2nc(NCCc3cccc(Cl)c3C(F)(F)F)ncc2C#N)CC[C@@H]1O
2. Cc1ncc(-c2ccc(CCNc3ncc(C#N)c(N[C@@H]4CC[C@H](O)C(C)(C)C4)n3)cc2)s1
3. COc1cccc(CCNc2ncc(C#N)c(N[C@@H]3CC[C@H](O)C(C)(C)C3)n2)c1OC

1: 0.1 to 0.8 µM; 2: < 0.1 µM; 3: 0.1 to 0.8 µM

---

assayed.target: His-PKC-theta (Homo sapiens, UniProt Q04759)
Construct: His; purchased Invitrogen
protocol.notes: PKC-theta Assay (384-well time resolved fluorescence, IMAP TR-FRET)
Assay type: biochemical
measurement.parameters: read-out: Act. Level (IC50 in the PKC-theta Assay)
Hi there, I'd appreciate the recorded IC50 for every entry that follows.

Sample records with IC50:
INSERT INTO measurements (compound, metric_name, result) VALUES
  ('CC1(C)[C@@H](O)C[C@H]1Nc1nc(NCCn2cccc2)ncc1C#N [Cmpd 238]', 'IC50', '100 to 800 nM'),
  ('CCc1ccc2c(c1)C(CCNc1ncc(C#N)c(N[C@H]3CC[C@@H](C(N)=O)CC3)n1)C(=O)N2 (stereo partly shown) [Cmpd 180]', 'IC50', '< 100 nM'),
  ('Cc1ccc(Oc2ncncc2CNc2ncc(C(F)(F)F)c(N[C@H]3CC[C@@](C)(O)CC3)n2)cc1 [Cmpd 31]', 'IC50', '< 100 nM');

Can you share its IC50? I mean this compound: CC(F)(F)COc1ncncc1CNc1ncc(C#N)c(NC23CCC(O)(CC2)CC3)n1 [Cmpd 156] 800 to 2000 nM

---

For each entry below, report its pIC50 value.
assayed.target: His-PKC-theta (Homo sapiens)
Construct: His; purchased Invitrogen
protocol.notes: PKC-theta Assay (384-well time resolved fluorescence, IMAP TR-FRET)
Type: biochemical
measurement.parameters: Table 2; read-out: Act. Level (IC50 in the PKC-theta Assay)
Procedure: PKC-theta Assay. A 384-well time resolved fluorescence assay was used to monitor PKC-theta activity. The PKC-theta assay was run in the following assay buffer: 50 mM HEPES pH 7.6, 10 mM MgCl2, 1 mM DTT, 0.01% Triton X-100, 0.01% BSA and 0.1 mM EDTA. […] The assay plates were then incubated overnight at room temperature and read on a Perkin-Elmer Envision Reader.
pIC50: −log10 of the molar value.

Below are worked cases with known answers.
INSERT INTO results (compound, assayed_target, result) VALUES
  ('CC1(C)[C@@H](O)C[C@H]1Nc1nc(NCCc2ccc(Cl)cc2Cl)ncc1C#N [Cmpd 106]', 'His-PKC-theta (Homo sapiens)', '6.10 to 7.00'),
  ('CC1(C)C[C@H](Nc2nc(NCCc3ccc(C(=O)O)cc3)ncc2C#N)CC[C@@H]1O [Cmpd 153]', 'His-PKC-theta (Homo sapiens)', '5.70 to 6.10'),
  ('N#Cc1cnc(NCCc2cccc(Cl)c2)nc1N[C@H]1CC[C@H](O)CC1 [Cmpd 69]', 'His-PKC-theta (Homo sapiens)', '5.70 to 6.10');

Batch of 4 compounds: report pIC50 for each.
1. CC(C)(CO)Nc1nc(NCc2cnccc2C(F)(F)F)ncc1C#N [Cmpd 15]
2. CN(C)c1ccc(CCNc2ncc(C#N)c(N[C@@H]3C[C@H](O)C3(C)C)n2)cc1 [Cmpd 133]
3. CC1(C)C[C@@H](O)CC[C@H]1Nc1nc(NCCc2cccc(Cl)c2)ncc1C#N [Cmpd 190]
4. N#Cc1cnc(NCc2ccccc2)nc1N[C@H]1CC[C@@H](O)CC1 [Cmpd 28]

1. 6.10 to 7.00
2. 6.10 to 7.00
3. > 7.00
4. 5.00 to 5.70

---

assayed.target: His-PKC-theta (Homo sapiens, UniProt Q04759)
Construct: His; purchased Invitrogen
protocol.notes: PKC-theta Assay (384-well time resolved fluorescence, IMAP TR-FRET)
Format: biochemical
measurement.parameters: read-out: Act. Level (IC50 in the PKC-theta Assay)
metric.name: IC50

Consider the reported IC50 for these molecules:
INSERT INTO assay_data (molecule, assayed_target, metric_name, result) VALUES
  ('CC1(C)[C@@H](O)C[C@H]1Nc1nc(NCc2cncnc2OCCC(F)(F)F)ncc1C#N [Cmpd 4]', 'His-PKC-theta (Homo sapiens, UniProt Q04759)', 'IC50', '< 100 nM'),
  ('Cc1ccc(Oc2ncncc2CNc2ncc(C#N)c(N[C@H]3CC[C@@](C)(O)CC3)n2)cc1 [Cmpd 28]', 'His-PKC-theta (Homo sapiens, UniProt Q04759)', 'IC50', '< 100 nM'),
  ('Cc1cnn(CCNc2ncc(C#N)c(N[C@@H]3CC[C@H](O)C(C)(C)C3)n2)c1 [Cmpd 212]', 'His-PKC-theta (Homo sapiens, UniProt Q04759)', 'IC50', '2000 to 10000 nM'),
  ('CC(F)(F)COc1ncncc1CNc1ncc(C#N)c(N[C@H]2CCC[C@](C)(O)C2)n1 [Cmpd 285]', 'His-PKC-theta (Homo sapiens, UniProt Q04759)', 'IC50', '2000 to 10000 nM'),
  ('Cc1cccc2c(CCNc3ncc(C#N)c(N[C@@H]4CC[C@H](O)C(C)(C)C4)n3)c[nH]c12 [Cmpd 172]', 'His-PKC-theta (Homo sapiens, UniProt Q04759)', 'IC50', '100 to 800 nM');

Give IC50 for all molecules that follow.
1. CC1(C)C(O)C(C)(C)C1Nc1nc(NCc2cnccc2C(F)(F)F)ncc1C#N (stereo not shown) [Cmpd 130]
2. CC1(C)[C@H](CO)C[C@@H]1Nc1nc(NCc2c[n+]([O-])ccc2C(F)(F)F)ncc1C(F)(F)F [Cmpd 141]

1: 100 to 800 nM; 2: 800 to 2000 nM

---

assayed.target: His-PKC-theta (Homo sapiens)
Construct: His; purchased Invitrogen
protocol.notes: PKC-theta Assay (384-well time resolved fluorescence, IMAP TR-FRET)
Type: biochemical
measurement.parameters: read-out: Act. Level (IC50 in the PKC-theta Assay)
Task for the reader: assign each of the following molecules its reported IC50.

// known answers, use as guide
INSERT INTO assay_data (molecule, result) VALUES
  ('CC1(C)C[C@H](Nc2nc(NCCn3c(=O)[nH]c4ccccc43)ncc2C#N)CC[C@@H]1O [Cmpd 293]', '2000 to 10000 nM'),
  ('CC1(C)[C@@H](O)C[C@H]1Nc1nc(NCCC2CNc3cc(Cl)ccc32)ncc1C#N (stereo partly drawn) [Cmpd 263]', '100 to 800 nM'),
  ('CCc1ncncc1CNc1ncc(C#N)c(N[C@@H]2C[C@H](O)C2(C)C)n1 [Cmpd 67]', '< 100 nM'),
  ('CC1(C)[C@@H](O)C[C@H]1Nc1nc(NCCc2nc3ccccc3o2)ncc1C#N [Cmpd 242]', '2000 to 10000 nM'),
  ('CC1(C)[C@@H](O)C[C@H]1Nc1nc(NCCc2cccc3cc[nH]c23)ncc1C#N [Cmpd 229]', '800 to 2000 nM'),
  ('CC(C)c1ncncc1CNc1ncc(C(F)(F)F)c(N[C@@H]2C[C@H](O)C2(C)C)n1 [Cmpd 20]', '< 100 nM');

Give IC50 for each of the items listed below.
1. CC1(C)[C@H](CO)C[C@H]1Nc1nc(NCc2cnccc2C(F)(F)F)ncc1C(F)(F)F [Cmpd 66]
2. Cc1cc(C(F)(F)F)c(CNc2ncc(C(F)(F)F)c(N[C@@H]3CC[C@H](O)C(C)(C)C3)n2)c[n+]1[O-] [Cmpd 55]
3. CC1(C)C[C@H](Nc2nc(NCCc3ccncc3)ncc2C#N)CC[C@@H]1O [Cmpd 280]
4. Cc1[nH]c2c(F)cc(F)cc2c1CCNc1ncc(C#N)c(N[C@H]2CC[C@@H](O)CC2)n1 [Cmpd 149]
5. CC(F)(F)COc1ncncc1CNc1ncc(C#N)c(N[C@@H]2CCC[C@@](C)(O)C2)n1 [Cmpd 286]
6. CC1(C)[C@H](CO)C[C@H]1Nc1nc(NCc2cnccc2C(F)(F)F)ncc1C#N [Cmpd 51]

1. < 100 nM
2. < 100 nM
3. 100 to 800 nM
4. 2000 to 10000 nM
5. 100 to 800 nM
6. < 100 nM
